B1: Protein piccolo, residues 1058 to 1114; numbered along this chain, Q9Y6V0 (parent)
chain: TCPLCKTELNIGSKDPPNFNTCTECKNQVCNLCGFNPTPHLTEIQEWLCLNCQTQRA

Variants of: B1
Test: abundance fitness (aPCA) (normalised: wild type 0, dead -1); higher = more abundant; growth selection in yeast, the domain comes from the species named
Conditions: Homo sapiens
Would you please tag the item Met when its abundance fitness is -0.1 or above, and Not met when it is below?

Please review the entries below; each comes with its answer.
Variant notation: W47T
Assigned label: Not met

Variant notation: C22W
Assigned label: Not met

Variant notation: C25P
Assigned label: Not met

Variant notation: I11C
Assigned label: Not met

Variant notation: L9E
Assigned label: Not met

Variant notation: E8C
Assigned label: Not met

Prompt: Check if abundance fitness >= -0.1 (inclusive). Item: I44E
Response: Met

Prompt: Item N10D with abundance fitness of -0.1 or above?
Response: Not met

Prompt: Please check the record K14V and state if its abundance fitness is at or above -0.1.
Response: Met
